Reference source: patent US20240308968A1

System: Zymoseptoria tritici
Assay: Test A: preventive spray on wheat seedlings, wheat leaf blotch disease rating
Type: in vivo
Settings: 50 ppm, 100 = 100% disease control, 0 = no control
Provide the reported Test A disease control rating of each item.
// note: answer is a bare numeric in %

response.value for COc1ccc(-c2c(Br)c(=O)c(C)nn2-c2cc(OC)ccc2Cl)c(Cl)c1 [Compound 130] (field: Test A disease control rating) = 100

response.value for COc1cc(OC)c(Cl)c(-n2nc(I)c(=O)c(C)c2-c2ccc(F)cc2Cl)c1 [Compound 96] (field: Test A disease control rating) = 100

response.value for COc1ccc(Cl)c(-n2nc(Cl)c(=O)c(Br)c2-c2ccc(F)cc2Cl)c1 [Compound 134] (field: Test A disease control rating) = 100

----------
Tested on: Puccinia recondita f. sp. Tritici
Experiment: Test B: preventive spray on wheat seedlings, wheat leaf rust disease rating
Type: in vivo
Details: 50 ppm, 100 = 100% disease control, 0 = no control
Rule: Test B disease control rating of 70% or more gives satisfied; anything lower gives not satisfied.

Check if Test B disease control rating >= 70% (inclusive). Item: Cc1c(-c2ccc(F)cc2Cl)c(-c2ccsc2Br)nn(C)c1=O
satisfied

Check if Test B disease control rating >= 70% (inclusive). Item: COc1cc(OC)c(Cl)c(-c2c(-c3ccc(F)cc3F)noc(=O)c2C)c1
satisfied

Check if Test B disease control rating >= 70% (inclusive). Item: CCOC(=O)c1nn(-c2cc(OC)ccc2Cl)c(-c2ccc(F)cc2F)c(C(=O)OCC)c1=O
not satisfied

Check if Test B disease control rating >= 70% (inclusive). Item: Cc1c(-c2ccc(F)cc2Cl)c(-c2cccs2)nn(C)c1=O
satisfied

Check if Test B disease control rating >= 70% (inclusive). Item: COc1cc(OC)cc(-n2nc(CF)c(=O)c(C)c2-c2ccc(F)cc2Cl)c1
satisfied

Check if Test B disease control rating >= 70% (inclusive). Item: COc1ccc(Cl)c(-n2nc(C)c(=O)c(Br)c2-c2ccc(F)cc2Cl)c1
satisfied

Check if Test B disease control rating >= 70% (inclusive). Item: COc1ccc(Cl)c(-c2cc(C#N)c(=O)n(C)c2-c2ccc(F)cc2Cl)c1
satisfied

Check if Test B disease control rating >= 70% (inclusive). Item: COc1ccc(Cl)c(-n2nc(Br)c(=O)cc2-c2ccc(F)cc2Cl)c1
satisfied

Check if Test B disease control rating >= 70% (inclusive). Item: CCOC(=O)c1nn(-c2cc(OC)ccc2Cl)c(-c2ccc(F)cc2)c(C(=O)OCC)c1=O
not satisfied

Check if Test B disease control rating >= 70% (inclusive). Item: Cc1cnn(-c2nn(C)c(=O)c(C)c2-c2ccc(F)cc2Cl)c1
not satisfied

Check if Test B disease control rating >= 70% (inclusive). Item: Cc1c(-c2ccc(F)cc2Cl)c(-c2ccsc2)nn(C)c1=O
satisfied

Check if Test B disease control rating >= 70% (inclusive). Item: COc1cc(OC)cc(-n2nc(CCl)c(=O)c(C)c2-c2ccc(F)cc2F)c1
not satisfied

Check if Test B disease control rating >= 70% (inclusive). Item: COc1ccc(Cl)c(-n2nc(Cl)c(=O)c(Br)c2-c2ccc(F)cc2Cl)c1
satisfied

Check if Test B disease control rating >= 70% (inclusive). Item: COc1ccc(-c2c(Br)c(=O)c(C)nn2-c2cc(OC)ccc2Cl)c(Cl)c1
satisfied

Check if Test B disease control rating >= 70% (inclusive). Item: COc1cc(OC)cc(-c2cc(C#N)c(=O)n(N)c2-c2c(F)cc(F)cc2F)c1
satisfied

Check if Test B disease control rating >= 70% (inclusive). Item: Cc1cscc1-c1nn(C)c(=O)c(C)c1-c1ccc(F)cc1Cl
satisfied
